Attribute: IC50
biological target: UniProt O75530; test: Inhibition of EED in human G401 cells assessed as reduction in H3K27 trymethylation measured after 6 days by alphaLISA method; assay type: cell-based
Sequence (O75530 whole entry): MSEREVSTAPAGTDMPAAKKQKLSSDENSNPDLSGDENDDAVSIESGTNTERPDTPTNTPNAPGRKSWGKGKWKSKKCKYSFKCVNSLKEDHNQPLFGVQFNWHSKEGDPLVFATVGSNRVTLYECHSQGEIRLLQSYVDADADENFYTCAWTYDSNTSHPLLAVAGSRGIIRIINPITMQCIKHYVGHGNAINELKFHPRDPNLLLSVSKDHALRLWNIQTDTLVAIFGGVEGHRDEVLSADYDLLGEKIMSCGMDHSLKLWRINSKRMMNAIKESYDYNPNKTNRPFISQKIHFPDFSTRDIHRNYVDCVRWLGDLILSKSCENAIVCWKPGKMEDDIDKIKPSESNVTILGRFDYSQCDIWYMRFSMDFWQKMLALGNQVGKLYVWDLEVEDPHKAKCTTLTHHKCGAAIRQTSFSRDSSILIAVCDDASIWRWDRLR
Just the number please, in µM, no unit attached.

Below, each entry is followed by its recorded IC50 result.
# compound, valueMeasured
data = [
    ("CN(C)[C@H]1CN(Cc2c(F)cccc2Cl)C[C@@H]1c1cn(C)c2ccccc12 (racemic)", 6.9),
    ("Cc1cccc(F)c1CN1C[C@H](c2cn(C)c3c(N4CCN(C)C(=O)C4)cccc23)[C@@H](N(C)C)C1 (mixture of isomers)", 0.19),
    ("CN(C)[C@H]1CN(C2CCc3cccc(F)c32)C[C@@H]1C1CCN(c2ccc(C(N)=O)cn2)CC1 (mixture of isomers)", 0.23),
    ("CC(=O)N1CCN(c2ccc([C@H]3CN(C4CCc5cccc(F)c54)C[C@@H]3N(C)C)cc2)CC1 (mixture of isomers)", 0.033),
    ("CN(C)[C@H]1CN(Cc2c(F)cccc2Br)C[C@@H]1c1cn(C)c2ccccc12 (racemic)", 4.1),
    ("CN(C)[C@H]1CN([C@H]2CCc3cccc(F)c32)C[C@@H]1c1cn(C)c2ccccc12", 0.29),
]

Ask | Entry under review: Cc1cccc(F)c1CN1C[C@H](c2cn(C)c3c(C(=O)N4CC(F)C4)cccc23)[C@@H](N(C)C)C1 (mixture of isomers) . Reported IC50?
Reply | 0.031

Ask | Entry under review: Cc1cccc(F)c1CN1C[C@H](c2cn(C)c3ccccc23)[C@@H](N(C)C)C1 . Reported IC50?
Reply | 2.4
